Where do the numbers come from? From patent US20100261620A1.

In this section we review reported koff values for a set of binders.
Molecular target: IL-13 (Homo sapiens (Human), UniProt P35225 35-146, limits assumed)
Sequence (P35225 35-146 limits assumed): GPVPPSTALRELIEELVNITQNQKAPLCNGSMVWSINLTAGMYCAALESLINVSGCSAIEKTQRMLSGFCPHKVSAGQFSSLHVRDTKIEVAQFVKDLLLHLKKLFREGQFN
Experiment: Biacore
reported_property: koff

binder="H2L6 HFS variant (antibody, V domains shown, IgG1; also called IL13-62) VH: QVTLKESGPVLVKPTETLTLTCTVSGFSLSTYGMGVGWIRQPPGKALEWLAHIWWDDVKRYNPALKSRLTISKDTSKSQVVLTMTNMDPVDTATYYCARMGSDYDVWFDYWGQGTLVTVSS VL: EIVLTQSPATLSLSPGERATLSCRASKSISKYLAWYQQKPGQAPRLLIYSGSTLQSGIPARFSGSGSGTDFTLTISSLEPEDFAVYYCQQHNEYPYTFGQGTKLEIK" result="0.000944 s⁻¹"
binder="M453 (antibody, V domains shown, anti-IL-13, human IgG1) VH: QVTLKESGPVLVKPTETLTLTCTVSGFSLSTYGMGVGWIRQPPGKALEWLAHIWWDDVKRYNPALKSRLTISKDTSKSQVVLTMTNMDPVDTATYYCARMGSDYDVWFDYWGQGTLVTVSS VL: EIVLTQSPATLSLSPGERATLSCRASKSISKYLAWYQQKPGQAPRLLIYSGSTLQSGIPARFSGSGSGTDFTLTISSLEPEDFAVYYCQQHDWGPYTFGQGTKLEIK" result="4.7e-05 s⁻¹"
binder="M479 (antibody, V domains shown, anti-IL-13, human IgG1) VH: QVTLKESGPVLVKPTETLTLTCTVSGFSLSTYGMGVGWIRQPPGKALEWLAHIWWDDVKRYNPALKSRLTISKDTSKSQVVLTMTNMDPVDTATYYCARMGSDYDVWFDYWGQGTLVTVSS VL: EIVLTQSPATLSLSPGERATLSCRASKSISKYLAWYQQKPGQAPRLLIYSGSTLQSGIPARFSGSGSGTDFTLTISSLEPEDFAVYYCQQPLDTPYTFGQGTKLEIK" result="0.00024 s⁻¹"
